Entries and their inhibition at 0.001 µM values follow.
- tested.on: CYP17 (human testicular microsome) (Homo sapiens, UniProt P05093)
- Construct: using microsomal fraction from human testis (Celsis Cat #S00110) as the enzyme source; tissue Celsis S00110; host or cells: human testis microsomal fraction
- Sequence (P05093 whole entry): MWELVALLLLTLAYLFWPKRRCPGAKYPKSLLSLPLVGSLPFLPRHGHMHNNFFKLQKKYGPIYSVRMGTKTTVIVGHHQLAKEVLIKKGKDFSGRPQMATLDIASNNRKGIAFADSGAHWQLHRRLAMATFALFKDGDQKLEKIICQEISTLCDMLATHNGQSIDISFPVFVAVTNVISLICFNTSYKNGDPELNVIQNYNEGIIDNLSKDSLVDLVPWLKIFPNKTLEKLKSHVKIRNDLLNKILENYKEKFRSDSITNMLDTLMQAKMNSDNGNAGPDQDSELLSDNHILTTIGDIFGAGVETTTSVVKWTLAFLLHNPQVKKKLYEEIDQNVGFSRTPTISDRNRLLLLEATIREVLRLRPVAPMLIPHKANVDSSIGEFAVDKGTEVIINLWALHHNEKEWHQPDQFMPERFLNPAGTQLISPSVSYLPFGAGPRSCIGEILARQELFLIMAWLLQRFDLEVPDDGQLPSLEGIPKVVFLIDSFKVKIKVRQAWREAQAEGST
- assay.overview: CYP17 enzymatic assay (% inhibition at 1 nM) (Biological Example 12)
- Assay type: biochemical
- test.conditions: test compound at 1 nM, read-out: CYP17 enzymatic assay percent inhibition at 1 nM (Biological Example No. 12)

compound	inhibition at 0.001 µM
C[C@]12CCC3C(CC=C4C[C@@H](OC(=O)c5ccccc5)CC[C@@]43C)C1=CC=C2c1cccnc1 (stereo partly shown)	10 to 50%
C[C@@]1(O)CC[C@@]2(C)C(=CCC3C2CC[C@]2(C)C(c4cccnc4)=CCC32)C1 (stereo partly shown)	> 50%

[ask] What value of inhibition at 0.001 µM has been recorded for this entry: Cc1ccncc1C1=CC=C2C3CCC4CC(=O)CC[C@]4(C)C3CC[C@]12C (stereo partly shown)
[reply] 10 to 50%

[ask] What value of inhibition at 0.001 µM has been recorded for this entry: CC(=O)Nc1cncc(C2=CCC3C4CC=C5C[C@@H](O)CC[C@]5(C)C4CC[C@]23C)c1 (stereo partly shown)
[reply] < 10%
